# Test system: Mycobacterium ranae
# Test Description: In vitro antibacterial activity, MIC by broth dilution
# Type: cell-based
# Condition Set: Mycobacterium; 20-72 hours at 37° C., Brain Heart Infusion broth
Categorized via MIC: lower level = under 10 µM, middle level = from 10 µM up to 30 µM, upper level = 30 µM and over

INSERT INTO results (compound, assayed_target, group) VALUES
  ('CCn1cc(C(=O)O)c(=O)c2cc(F)c(N3CCN(CC(C)NN)CC3)cc21 (centres unmarked)', 'Mycobacterium ranae', 'middle level'),
  ('CCn1cc(C(=O)O)c(=O)c2cc(F)c(N3CCN(CC(=O)c4ccccc4)CC3)c(F)c21', 'Mycobacterium ranae', 'lower level'),
  ('CCn1cc(C(=O)O)c(=O)c2cc(F)c(N3CCN(CC(=NO)c4ccc(OC)cc4)CC3)cc21', 'Mycobacterium ranae', 'upper level'),
  ('COc1ccc(C(CN2CCN(c3cc4c(cc3F)c(=O)c(C(=O)O)cn4-c3ccc([N+](=O)[O-])cc3F)CC2)=NO)cc1', 'Mycobacterium ranae', 'middle level'),
  ('CCn1cc(C(=O)O)c(=O)c2cc(F)c(N3CCN(CC(C)=NO)CC3)cc21', 'Mycobacterium ranae', 'upper level'),
  ('CCn1cc(C(=O)O)c(=O)c2cc(F)c(N3CCN(CC(=NOC)c4ccc(OC)cc4)CC3)cc21', 'Mycobacterium ranae', 'upper level'),
  ('CCn1cc(C(=O)O)c(=O)c2cc(F)c(N3CCN(CC(=NO)c4ccccc4)CC3)cc21', 'Mycobacterium ranae', 'upper level'),
  ('CC1COc2c(N3CCN(C)CC3)c(F)cc3c(=O)c(C(=O)O)cn1c23 (centres unmarked) [Ofloxacin, reference compound]', 'Mycobacterium ranae', 'lower level'),
  ('COc1ccc(C(=O)CN2CCN(c3cc4c(cc3F)c(=O)c(C(=O)O)cn4-c3ccc(N)cc3F)CC2)cc1', 'Mycobacterium ranae', 'middle level'),
  ('CCn1cc(C(=O)O)c(=O)c2cc(F)c(N3CCN(CC(=NO)c4ccc(OC)cc4)CC3)c(F)c21', 'Mycobacterium ranae', 'lower level');

These entries and their values trace back to patent US6492373B2.
